- TARGET_ENTITY: SARS-CoV-2 S receptor binding domain (RBD) (SARS-CoV-2 (Wuhan-Hu-1), UniProt P0DTC2 329-538)
- ASSAY_NAME: ELISA
Below, each entry is listed with its recorded EC50.
Answer with a number only, understood to be in ng/mL.

Check out these entries, answers already filled in.
BINDER	RECORDED_MEASUREMENT
10D12 bivalent human heavy-chain-only antibody (HCAb) (antibody, V domains shown) VH: EVQLVETGGGLIQPGGSLRLSCAVSGFTVSLNYMSWVRQAPGKGLEWVSSIYSGGSTFYADSVKGRFTISRDNSKNTLYLQMNSLRAEDTAVYYCARGLGFGELPPFDFWGQGTLVTVSS	3.22
7D1 bivalent human heavy-chain-only antibody (HCAb) (antibody, V domains shown) VH: EVQLVETGGGLIQPGGSLRLSCAASGFQVSSSYMSWVRQAPGKGLEWVSVIYSGGGTYYADSVKGRFTISRDISKNTLYLQMNNLRAEDTAMYYCARGWTGVTATTGPWGQGTLVTVSS	4.11

Task: Entry 14D2 bivalent human heavy-chain-only antibody (HCAb) (antibody, V domains shown) VH: EVQLVETGGGLIQPGGSLRLSCAASGFQVSNVYMSWVRQAPGKGQEWVSVLYSGGNTYYADSVKGRFTISRDNSKNMVYLQMNSLRVEDTAVYYCARGWEGVTGTTGPWGQGTLVTVSS : reported EC50 = ?
Result: 3.48

Task: Entry 10H7 bivalent human heavy-chain-only antibody (HCAb) (antibody, V domains shown) VH: EVQLVESGGGLIQPGGSLRLSCAASGFTVSNNYMAWVRQAPGKGLEWISVIYANGNTYYADSVKGRFTISRDNSKNVLFLQMSGLRAEDTAVYYCSSRYGSGSEELYDIWGQGTMVTVSS : reported EC50 = ?
Result: 3.09
